Each entry below lists one item and its recorded IC50 value.
- MEASUREMENT_TARGET: UniProt:P08684
- Sequence (P08684 whole entry): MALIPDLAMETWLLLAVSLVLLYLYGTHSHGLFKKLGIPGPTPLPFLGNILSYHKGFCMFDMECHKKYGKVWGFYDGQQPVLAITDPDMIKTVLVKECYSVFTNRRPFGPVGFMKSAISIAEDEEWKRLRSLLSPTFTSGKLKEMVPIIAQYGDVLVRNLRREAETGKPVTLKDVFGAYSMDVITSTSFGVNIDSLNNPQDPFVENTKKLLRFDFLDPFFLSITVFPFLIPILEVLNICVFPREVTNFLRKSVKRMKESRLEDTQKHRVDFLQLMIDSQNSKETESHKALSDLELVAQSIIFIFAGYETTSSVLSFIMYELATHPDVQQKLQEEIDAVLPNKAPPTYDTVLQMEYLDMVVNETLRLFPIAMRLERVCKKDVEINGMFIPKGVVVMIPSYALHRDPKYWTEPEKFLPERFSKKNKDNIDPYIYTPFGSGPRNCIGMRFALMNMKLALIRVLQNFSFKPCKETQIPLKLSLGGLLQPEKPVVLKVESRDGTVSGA
- EXPERIMENTAL_DETAILS: Measurement of CYP (IC50 of P450 CYP3A4), BFC substrate
- Format: in vitro ADME
- EXPERIMENTAL_PARAMETERS: 20 minutes
Please state the figure in µM; there is no need to write the unit.

Here is how some compounds turned out for IC50.
Entry C=CCN1CC(=O)N2C(CN(Cc3cccc4c(C(=O)Nc5ccc(N6CCC7(CCN(CC)C7)C6)nc5)cn(C)c34)C(=O)[C@@H]2Cc2ccc(O)cc2)N1C(=O)NCc1ccccc1 (stereo partly shown) has what IC50?
3.91

Recorded IC50 of C=CCN1CC(=O)N2[C@@H](Cc3ccc(O)cc3)C(=O)N(Cc3cccc4c(C(=O)Nc5cnc(N6CCN(C(C)C)CC6)nc5)cn(C)c34)C[C@@H]2N1C(=O)NCc1ccccc1 , please.
3.67

Find the recorded IC50 belonging to C=CCN1CC(=O)N2[C@@H](Cc3ccc(O)cc3)C(=O)N(Cc3cccc4c(-c5ccc(NC(=O)N6CCOCC6)cc5)cn(C)c34)C[C@@H]2N1C(=O)NCc1ccccc1 and report it.
2.19

Entry C=CCN1CC(=O)N2[C@@H](Cc3ccc(O)cc3)C(=O)N(Cc3cccc4c(-c5ccc(NC(=O)CCCNCCC(C)=O)cc5)cn(C)c34)C[C@@H]2N1C(=O)NCc1ccccc1 : reported IC50 = ?
2.78

From here, focus on the item given below.
Quick one: IC50 for C=CCN1CC(=O)N2[C@@H](Cc3ccc(O)cc3)C(=O)N(Cc3cccc4c(C(=O)NC5CCN(C(=O)c6ccc(N7CCN(C)CC7)cc6)CC5)cn(C)c34)C[C@@H]2N1C(=O)NCc1ccccc1 ?
9.65

----------
- MEASUREMENT_TARGET: UniProt P08684
- EXPERIMENTAL_DETAILS: Measurement of CYP (IC50 of P450 CYP3A4), BFC substrate
- Assay type: in vitro ADME
- EXPERIMENTAL_PARAMETERS: 20 minutes
- Protocol: The compounds of the present invention had lower P450 CYP3A4 inhibitory activity (higher IC50). Lower CYP3A4 inhibitory activity means that the compounds of the present invention cause fewer side-effects from the pharmacological point of view. […] Then, a fluorescent signal was measured using a fluorometer. A BFC metabolite, 7-hydroxy-4-trifluoromethyl-coumarin, was measured using an excitation wavelength of 409 nm and an emission wavelength of 530 nm.
IC50 overview
Value expressed in nM; do not type the unit.

Here is how some compounds turned out for IC50.
If you can, please state the reported IC50 value of C=CCN1CC(=O)N2C(Cc3ccc(O)cc3)C(=O)N(Cc3cccc4c(C(=O)Nc5ccc(NCC(C)(C)C)nc5)cn(C)c34)CC2N1C(=O)NCc1ccccc1 (stereo not drawn) [Compound G-22] .
2380

Would you mind telling me what IC50 value was observed for C=CCN1CC(=O)N2C(Cc3ccc(O)cc3)C(=O)N(Cc3cccc4c(C(=O)Nc5ccc(NCCN6CCOCC6)nc5)cn(C)c34)CC2N1C(=O)NCc1ccccc1 (stereo not drawn) [Compound G-28] ?
2320

--- query ---
GET /values?readout=IC50&item= C=CCN1CC(=O)N2[C@@H](Cc3ccc(O)cc3)C(=O)N(Cc3cccc4c(C(=O)N5CCN(CCN6CCOCC6)CC5)cn(C)c34)C[C@@H]2N1C(=O)NCc1ccccc1 [Compound E-25]
6090

Data credit: patent US8940739B2
